target: Mammalian Cathepsin K (Homo sapiens, UniProt P43235); assay: Ki competitive inhibition, cathepsin K; assay type: biochemical; settings: Table 1, third line of each CAP-P2 block; read-out: Ki competitive inhibition measurements vs Mammalian Cathepsin K
MEASURE NAME: Ki (µM)
Respond numerically; units are µM and should not be typed.

The reported value for C[C@@H]1OCC(=O)[C@@H]1NC(=O)[C@H](CC(C)(C)C)NC(=O)c1ccoc1 [CAP8-L-tBu-Ala/drawing 70] in terms of Ki is 19.9

The reported value for CC(C)C[C@H](NC(=O)c1ccc(N(C)C)cc1)C(=O)N[C@@H]1COCC1=O [CAP7-L-Leu/drawing 73] in terms of Ki is 0.023

The reported value for C[C@@H]1OCC(=O)[C@H]1NC(=O)[C@H](CC(C)(C)C)NC(=O)c1ccoc1 [CAP8-L-tBu-Ala/drawing 71] in terms of Ki is 7.3

====

biological target: Mammalian Cathepsin L (Homo sapiens, UniProt P07711); test: Ki competitive inhibition, cathepsin L; assay type: biochemical; conditions: Table 1, second line of each CAP-P2 block; read-out: Ki competitive inhibition measurements vs Mammalian Cathepsin L
Sequence (P07711 114-333): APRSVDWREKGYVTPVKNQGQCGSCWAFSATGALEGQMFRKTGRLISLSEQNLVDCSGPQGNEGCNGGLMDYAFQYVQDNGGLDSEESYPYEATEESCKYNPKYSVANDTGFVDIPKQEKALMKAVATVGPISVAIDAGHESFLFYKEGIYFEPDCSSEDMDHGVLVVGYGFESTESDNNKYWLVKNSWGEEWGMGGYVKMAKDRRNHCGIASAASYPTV
MEASURE NAME: pKi
Remember the convention: pKi equals -log10 of concentration in molar.

These solved cases illustrate the format of a correct answer.
CCCC[C@H](NC(=O)c1ccc(O)cc1)C(=O)N[C@@H]1C(=O)CO[C@H]1C [CAP1-L-Nle/drawing 71] ... 4.71
Cc1cc(C(=O)N[C@@H](Cc2ccc(O)cc2)C(=O)N[C@@H]2C(=O)CO[C@@H]2C)oc1C [CAP6-L-Tyr/drawing 69] ... 7.26

Let's switch to this compound now.
The reported value for CC(C)CC[C@H](NC(=O)c1ccoc1)C(=O)N[C@@H]1C(=O)CO[C@@H]1C [CAP8-L-hLeu/drawing 69] in terms of pKi is 4.41

====

Let's look at some molecules and their measured Ki.
Biological target: UniProt:P43235
Sequence (P43235 115-329): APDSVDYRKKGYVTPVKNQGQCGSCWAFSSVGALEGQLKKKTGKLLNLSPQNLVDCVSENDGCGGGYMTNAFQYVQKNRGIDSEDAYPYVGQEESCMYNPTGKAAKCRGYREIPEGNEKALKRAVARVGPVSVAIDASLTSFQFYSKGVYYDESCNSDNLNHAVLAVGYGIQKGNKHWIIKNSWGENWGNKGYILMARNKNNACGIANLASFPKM
Experiment: Ki competitive inhibition, cathepsin K
Assay type: biochemical
Settings: Table 1, third line of each CAP-P2 block; read-out: Ki competitive inhibition measurements vs Mammalian Cathepsin K

These solved cases illustrate the format of a correct answer.
O=C(N[C@@H](Cc1ccc(O)cc1)C(=O)N[C@H]1COCC1=O)c1ccccc1 [CAP3-L-Tyr/drawing 72] ... > 100 µM
CCn1nc(C)cc1C(=O)N[C@@H](Cc1ccc(O)cc1)C(=O)N[C@H]1C(=O)CO[C@H]1C [CAP10-L-Tyr/drawing 70] ... > 100 µM
C[C@H]1OCC(=O)[C@H]1NC(=O)[C@H](Cc1ccc(O)cc1)NC(=O)Cc1ccccc1 [CAP2-L-Tyr/drawing 69] ... > 100 µM
Cc1cc(C(=O)N[C@@H](CC(C)C)C(=O)N[C@H]2C(=O)CO[C@H]2C)oc1C [CAP6-L-Leu/drawing 70] ... 0.75 µM
C[C@H]1OCC(=O)[C@H]1NC(=O)[C@H](Cc1ccc(O)cc1)NC(=O)c1cccs1 [CAP5-L-Tyr/drawing 69] ... > 100 µM
C[C@@H]1OCC(=O)[C@@H]1NC(=O)[C@H](Cc1ccc(O)cc1)NC(=O)c1ccc(O)cc1 [CAP1-L-Tyr/drawing 70] ... > 100 µM

The reported value for CCCC[C@H](NC(=O)c1ccc(O)cc1)C(=O)N[C@H]1COCC1=O [CAP1-L-Nle/drawing 72] in terms of Ki is 1.4 µM

The reported value for Cc1cc(C(=O)N[C@@H](Cc2ccc(O)cc2)C(=O)N[C@@H]2COCC2=O)oc1C [CAP6-L-Tyr/drawing 73] in terms of Ki is > 100 µM

The reported value for Cc1cc(C(=O)N[C@@H](CC(C)C)C(=O)N[C@@H]2COCC2=O)oc1C [CAP6-L-Leu/drawing 73] in terms of Ki is 0.33 µM

The reported value for CC(C)CC[C@H](NC(=O)c1ccc(O)cc1)C(=O)N[C@H]1C(=O)CO[C@H]1C [CAP1-L-hLeu/drawing 70] in terms of Ki is 24.1 µM

The reported value for CCCCC(NC(=O)c1ccc(N(C)C)cc1)C(=O)NC1C(=O)COC1C [CAP7-L-Nle/drawing 70] in terms of Ki is 3.1 µM

The reported value for C[C@@H]1OCC(=O)[C@@H]1NC(=O)[C@H](Cc1ccc(O)cc1)NC(=O)c1ccccc1 [CAP3-L-Tyr/drawing 70] in terms of Ki is > 100 µM

====

Let's look at some compounds and their measured pKi.
target: Mammalian Cathepsin S (Homo sapiens, UniProt P25774); test: Ki competitive inhibition, mammalian cathepsin S; format: biochemical; conditions: Table 1, first line of each CAP-P2 block; read-out: Ki competitive inhibition measurements vs Mammalian Cathepsin S
Sequence (P25774 115-331): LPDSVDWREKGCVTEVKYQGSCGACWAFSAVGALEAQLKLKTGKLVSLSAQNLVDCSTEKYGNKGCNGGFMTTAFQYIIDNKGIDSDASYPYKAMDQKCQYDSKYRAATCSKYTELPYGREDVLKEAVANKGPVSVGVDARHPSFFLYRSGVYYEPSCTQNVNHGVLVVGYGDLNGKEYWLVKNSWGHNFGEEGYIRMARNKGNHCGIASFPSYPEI
Remember the convention: pKi equals -log10 of concentration in molar.

These solved cases illustrate the format of a correct answer.
CCCC[C@H](NC(=O)c1ccoc1)C(=O)N[C@H]1C(=O)CO[C@H]1C [CAP8-L-Nle/drawing 70] ... 6.00
C[C@@H]1OCC(=O)[C@H]1NC(=O)[C@H](CC(C)(C)C)NC(=O)c1ccoc1 [CAP8-L-tBu-Ala/drawing 71] ... 7.00
Cc1cc(C(=O)N[C@@H](Cc2ccc(O)cc2)C(=O)N[C@@H]2C(=O)CO[C@@H]2C)oc1C [CAP6-L-Tyr/drawing 69] ... 5.70

The reported value for CC(C)C[C@H](NC(=O)c1ccc(O)cc1)C(=O)N[C@H]1C(=O)CO[C@H]1C [CAP1-L-Leu/drawing 70] in terms of pKi is 6.64

The reported value for C[C@@H]1OCC(=O)[C@@H]1NC(=O)[C@H](CC(C)(C)C)NC(=O)c1ccoc1 [CAP8-L-tBu-Ala/drawing 70] in terms of pKi is 6.70

The reported value for CC(C)C[C@H](NC(=O)N1CCOCC1)C(=O)N[C@H]1C(=O)CO[C@H]1C [CAP9-L-Leu/drawing 70] in terms of pKi is 6.10

====

molecular target: UniProtKB P43235; assay: Ki competitive inhibition, cathepsin K; assay type: biochemical; details: Table 1, third line of each CAP-P2 block; read-out: Ki competitive inhibition measurements vs Mammalian Cathepsin K
Classification by Ki | ranges: low group: < 1 µM; middle group: ≥ 1 µM and < 6 µM; high group: ≥ 6 µM

Below are worked cases with known answers.
C[C@H]1OCC(=O)[C@H]1NC(=O)[C@H](Cc1ccc(O)cc1)NC(=O)c1ccccc1 [CAP3-L-Tyr/drawing 69] ... high group
CC(C)C[C@H](NC(=O)c1ccc(N(C)C)cc1)C(=O)N[C@H]1COCC1=O [CAP7-L-Leu/drawing 72] ... low group
CC(C)CC[C@H](NC(=O)c1ccoc1)C(=O)N[C@@H]1C(=O)CO[C@H]1C [CAP8-L-hLeu/drawing 71] ... high group
CC(C)CC[C@H](NC(=O)c1ccoc1)C(=O)N[C@@H]1C(=O)CO[C@@H]1C [CAP8-L-hLeu/drawing 69] ... high group
CC(C)C[C@H](NC(=O)N1CCOCC1)C(=O)N[C@H]1C(=O)CO[C@H]1C [CAP9-L-Leu/drawing 70] ... middle group
CCn1nc(C)cc1C(=O)N[C@@H](Cc1ccc(O)cc1)C(=O)N[C@@H]1C(=O)CO[C@H]1C [CAP10-L-Tyr/drawing 71] ... high group

Which category does the recorded Ki put CCn1nc(C)cc1C(=O)NC(Cc1ccc(O)cc1)C(=O)NC1COCC1=O [CAP10-L-Tyr/drawing 72] in?
high group

Which category does the recorded Ki put O=C(NC(Cc1ccc(O)cc1)C(=O)NC1COCC1=O)c1ccc(O)cc1 [CAP1-L-Tyr/drawing 72] in?
high group

====

biological target: Mammalian Cathepsin S (Homo sapiens, UniProt P25774); test: Ki competitive inhibition, mammalian cathepsin S; type: biochemical; details: Table 1, first line of each CAP-P2 block; read-out: Ki competitive inhibition measurements vs Mammalian Cathepsin S
Let's look at some compounds and their measured Ki.
Respond numerically; units are nM and should not be typed.

These solved cases illustrate the format of a correct answer.
Cc1cc(C(=O)N[C@@H](CC(C)C)C(=O)N[C@@H]2C(=O)CO[C@H]2C)oc1C [CAP6-L-Leu/drawing 71] ... 680
CC[C@@H]1OCC(=O)[C@H]1NC(=O)[C@H](CC(C)(C)C(C)C)NC(=O)c1ccoc1 [CAP8-Hybrid3/drawing 68] ... 15
C[C@H]1OCC(=O)[C@H]1NC(=O)[C@H](Cc1ccc(O)cc1)NC(=O)c1cccs1 [CAP5-L-Tyr/drawing 69] ... 1600
C[C@H]1OCC(=O)[C@H]1NC(=O)[C@H](CC(C)(C)C)NC(=O)c1cccs1 [CAP5-L-tBu-Ala/drawing 69] ... 470
CC(C)C[C@H](NC(=O)c1ccc(O)cc1)C(=O)N[C@@H]1COCC1=O [CAP1-L-Leu/drawing 73] ... 270
CC1OCC(=O)C1NC(=O)C(CC(C)(C)C)NC(=O)c1ccsc1 [CAP11-L-tBu-Ala/drawing 71] ... 95

The reported value for CCCC[C@H](NC(=O)c1ccc(N(C)C)cc1)C(=O)N[C@@H]1C(=O)CO[C@H]1C [CAP7-L-Nle/drawing 71] in terms of Ki is 6200

The reported value for O=C(N[C@@H](Cc1ccc(O)cc1)C(=O)N[C@H]1COCC1=O)c1ccccc1 [CAP3-L-Tyr/drawing 72] in terms of Ki is 1600

The reported value for CC(C)CC[C@H](NC(=O)c1ccoc1)C(=O)N[C@@H]1COCC1=O [CAP8-L-hLeu/drawing 73] in terms of Ki is 440

The reported value for Cc1cc(C(=O)N[C@@H](CC(C)C)C(=O)N[C@H]2C(=O)CO[C@H]2C)oc1C [CAP6-L-Leu/drawing 70] in terms of Ki is 610

The reported value for CC(C)CC[C@H](NC(=O)N1CCOCC1)C(=O)N[C@H]1C(=O)CO[C@H]1C [CAP9-L-hLeu/drawing 70] in terms of Ki is 700

The reported value for C[C@@H]1OCC(=O)[C@@H]1NC(=O)[C@H](Cc1ccc(O)cc1)NC(=O)c1ccc(O)cc1 [CAP1-L-Tyr/drawing 70] in terms of Ki is 1000

The reported value for CC(C)C[C@H](NC(=O)c1ccc(N(C)C)cc1)C(=O)N[C@@H]1COCC1=O [CAP7-L-Leu/drawing 73] in terms of Ki is 3900

The reported value for CC(C)CC[C@H](NC(=O)c1ccoc1)C(=O)N[C@@H]1C(=O)CO[C@H]1C [CAP8-L-hLeu/drawing 71] in terms of Ki is 370
